pIC50: −log10 of the molar value.
// pIC50 collected for VEGFR-2 Protein Kinase (Homo sapiens, UniProt P35968)
property-measured: pIC50

# query: pIC50 of entry O=C(CSc1nc2cc(Cl)ccc2o1)Nc1ccc(C(=O)NNC(=O)c2ccccc2)cc1 6.22

# query: pIC50 of entry COc1ccc(NC(=O)c2ccc(NC(=O)CSc3nc4cc(Cl)ccc4o3)cc2)cc1 6.41

* * *

property-measured: melting point

Recorded melting point, per entry:
# query: melting point of entry O=C(CSc1nc2cc(Cl)ccc2o1)Nc1ccc(C(=O)Nc2ccccc2)cc1 [Compound 10] 245 to 247 °C

# query: melting point of entry Cc1ccc2oc(SCC(=O)Nc3ccc(C(=O)Nc4ccccc4)cc3)nc2c1 [Compound 6] 240 to 242 °C

# query: melting point of entry Cc1ccc2oc(SCC(=O)Nc3ccc(C(=O)NC4CCCCC4)cc3)nc2c1 [Compound 5] 256 to 258 °C

# query: melting point of entry COc1ccc(NC(=O)c2ccc(NC(=O)CSc3nc4cc(Cl)ccc4o3)cc2)cc1 [Compound 12] 266 to 268 °C

# query: melting point of entry O=C(CSc1nc2cc(Cl)ccc2o1)Nc1ccc(C(=O)NC2CCCCC2)cc1 [Compound 9] 260 to 262 °C

Continuing:
# query: melting point of entry COc1ccc(NC(=O)c2ccc(NC(=O)CSc3nc4cc(C)ccc4o3)cc2)cc1 [Compound 8] 258 to 260 °C

# query: melting point of entry O=C(CSc1nc2ccccc2o1)Nc1ccc(C(=O)Nc2ccccc2)cc1 [Compound 2] 250 to 252 °C

# query: melting point of entry COc1ccc(NC(=O)c2ccc(NC(=O)CSc3nc4ccccc4o3)cc2)cc1 [Compound 4] 260 to 262 °C

# query: melting point of entry Cc1ccc2oc(SCC(=O)Nc3ccc(C(=O)NNC(=O)c4ccccc4)cc3)nc2c1 [Compound 14] 250 to 252 °C

# query: melting point of entry O=C(CSc1nc2ccccc2o1)Nc1ccc(C(=O)NNC(=O)c2ccccc2)cc1 [Compound 13] 270 to 272 °C

* * *

melting point reference

Recorded melting point, per entry:
# query: melting point of entry O=C(CSc1nc2ccccc2o1)Nc1ccc(C(=O)Nc2ccc(Cl)cc2)cc1 238 to 240 °C

# query: melting point of entry Cc1ccc2oc(SCC(=O)Nc3ccc(C(=O)Nc4ccc(Cl)cc4)cc3)nc2c1 265 to 267 °C

Continuing:
# query: melting point of entry O=C(CSc1nc2cc(Cl)ccc2o1)Nc1ccc(C(=O)NNC(=O)c2ccccc2)cc1 277 to 279 °C
